Each recorded value in this set is attributed to patent US11939340B2.

biological target: CDK2/Cyclin E2 (Homo sapiens); assay: CDK2/CyclinE2 Enzymatic Activity Assay (TR-FRET); details: CDK2/CyclinE2 1 nM, ATP 1 mM, read-out: CDK2_El IC50
pIC50: −log10 of the molar value.
Quick reference: pIC50 of the listed items.

Worked cases, answers included:
Ask | Entry CC12CCCN1C(=O)c1cc(-c3nc(NC4CCN(S(C)(=O)=O)CC4)ncc3C(F)(F)F)sc12 (stereo not drawn) [Example 20] : reported pIC50 = ?
Reply | ≥ 7.00

Ask | // query: CC(C)C12CCCN1C(=O)c1cc(-c3nc(NC4CCN(S(C)(=O)=O)CC4)ncc3C(F)(F)F)sc12 (stereo not drawn) [Example 11]
Reply | ≥ 7.00

Ask | // query: CCC12CCCN1C(=O)c1cc(-c3nc(NC4CCN(S(=O)(=O)c5cnn(C)c5)CC4)ncc3C(F)(F)F)sc12 (stereo not drawn) [Example 37]
Reply | ≥ 7.00

Ask | // query: CC(C)C12CCOCCN1C(=O)c1cc(-c3nc(NC4CCN(S(C)(=O)=O)CC4)ncc3C(F)(F)F)sc12 (stereo not drawn) [Example 10]
Reply | ≥ 7.00

Ask | // query: CCC12CC(N)CN1C(=O)c1cc(-c3nc(N[C@H]4CCN(S(C)(=O)=O)C[C@H]4C)ncc3C(F)(F)F)sc12 (stereo partly drawn) [Example 45]
Reply | ≥ 7.00

Ask | // query: CS(=O)(=O)N1CCC(Nc2ncc(C(F)(F)F)c(-c3cc4c(s3)C3(CF)CCCN3C4=O)n2)CC1 (stereo not drawn) [Example 18]
Reply | ≥ 7.00

Ask | // query: CCC12CC(NC)CN1C(=O)c1cc(-c3nc(N[C@H]4CCN(S(=O)(=O)c5cnn(C)c5)C[C@H]4C)ncc3C(F)(F)F)sc12 (stereo partly drawn) [Example 44]
Reply | ≥ 7.00

Ask | // query: CC(C)C12CCCCN1C(=O)c1cc(-c3nc(NC4CCN(S(C)(=O)=O)CC4)ncc3F)sc12 (stereo not drawn) [Example 9]
Reply | ≥ 7.00

Ask | // query: CS(=O)(=O)N1CCC(Nc2ncc(C(F)(F)F)c(-c3cc4c(s3)C3(C5CC5)CCCN3C4=O)n2)CC1 (stereo not drawn) [Example 22]
Reply | ≥ 7.00

Ask | // query: CCC12CC(NC)CN1C(=O)c1cc(-c3nc(N[C@@H]4CCN(S(C)(=O)=O)C[C@H]4F)ncc3C(F)(F)F)sc12 (stereo partly drawn) [Example 47]
Reply | ≥ 7.00

Continuing:
Ask | Entry CC(C)C12CCCCN1C(=O)c1cc(-c3nc(NC4CCN(S(C)(=O)=O)CC4)ncc3C(F)(F)F)sc12 (stereo not drawn) [Example 1] : reported pIC50 = ?
Reply | ≥ 7.00

Ask | // query: CS(=O)(=O)N1CCC(Nc2ncc(C(F)(F)F)c(-c3cc4c(s3)C3(CO)CCCN3C4=O)n2)CC1 (stereo not drawn) [Example 17]
Reply | ≥ 7.00

Ask | // query: CCC12CCCN1C(=O)c1cc(-c3nc(NC4CCN(S(C)(=O)=O)CC4)ncc3F)sc12 (stereo not drawn) [Example 15]
Reply | ≥ 7.00

Ask | // query: CCC12CCCN1C(=O)c1cc(-c3nc(NC4CCN(S(C)(=O)=O)CC4)ncc3C(F)(F)F)sc12 (stereo not drawn) [Example 14]
Reply | ≥ 7.00

Ask | // query: CC(C)C12CC(O)CN1C(=O)c1cc(-c3nc(NC4CCN(S(C)(=O)=O)CC4)ncc3C(F)(F)F)sc12 (stereo not drawn) [Example 29]
Reply | ≥ 7.00
